Origin of measurements: paper PMC9917360

Target: PR (Homo sapiens)
Sequence (P06401 679-913 limits assumed): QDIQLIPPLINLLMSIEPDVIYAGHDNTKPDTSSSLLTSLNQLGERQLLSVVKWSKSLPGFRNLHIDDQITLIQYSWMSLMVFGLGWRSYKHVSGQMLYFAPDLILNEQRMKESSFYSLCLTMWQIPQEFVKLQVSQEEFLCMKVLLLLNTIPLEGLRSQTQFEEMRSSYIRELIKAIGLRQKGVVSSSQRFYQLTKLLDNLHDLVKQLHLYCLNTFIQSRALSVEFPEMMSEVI
MEASURED PARAMETER: IC50 (µM)
Answers are plain numbers, in µM.

Which value of IC50 has been reported for COC(=O)C1=C(CNC(=O)OCc2ccccc2)NC(C)=C(C#N)C1c1ccc(F)cc1Cl (stereo not shown) in the records?
23
